Form field: Kp (one value per entry).
- Protocol: Plasma and brain pharmacokinetics in mice
- Format: in vivo, FVB or CD-1 mice
- Cond: mouse, brain and plasma, 5 mg/kg, oral, single dose, read-out: Brain/Plasma Ratio
Reply briefly: the number, and no unit.

The following compounds have reported results that may help.
Br.COCC(C)c1ccc(N2Cc3ccc(C)cc3C2=O)cc1 (stereo not shown): 0.29
COc1ccc2c(c1)C(=O)N(c1ccc(C(C)(C)C)cc1)C2: 51.7
COc1ccc2c(c1)C(=O)N(c1ccc(C(C)C(=O)O)cc1)C2 (stereo not shown): 0.03

What value of Kp has been reported for the following compound? CC(C)c1ccc(N2Cc3cc4c(cc3C2=O)OCCO4)cc1
3.43
